- Tested system: Human Fc (human)
- Experiment summary: ELISA, negative control
Measured quantity: optical density
A complete answer gives the number and then names the unit.

{"Binder": "369_D02 (antibody, V domains shown) VH: EVQLLESGGGLVQPGGSLRLSCAASGFTFSDYSMNWVRQAPGKGLEWVSNINYNSGYTGYADSVKGRFTISRDNSKNTLYLQMNSLRAEDTAVYYCARSANWHDTALDYWGQGTLVTVSS VL: DIQMTQSPSSLSASVGDRVTITCRASQSILSYLNWYQQKPGKAPKLVIYAVTSRASGVPSRFSGSGSGTDFTLTISSLQPEDFATYYCQQSYDTPLTFGGGTKVEIK", "Measured quantity": "optical density", "Test result": "0.407 OD"}

Next up:
What optical density value was documented for this binder, 370_A12 (antibody, V domains shown) VH: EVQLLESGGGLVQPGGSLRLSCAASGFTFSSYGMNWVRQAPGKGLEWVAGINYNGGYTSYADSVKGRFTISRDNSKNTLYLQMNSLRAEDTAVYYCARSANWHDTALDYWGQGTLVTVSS VL: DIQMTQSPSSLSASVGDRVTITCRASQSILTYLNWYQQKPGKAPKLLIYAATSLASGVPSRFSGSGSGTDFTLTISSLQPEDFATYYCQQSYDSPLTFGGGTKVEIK ?
0.674 OD
